Test system: HCC-78
Assay: relative viability (nuclei count vs DMSO), 5 days (fraction); higher = more cells survive
Settings: first compound 1.265 µM
I'd appreciate it if you marked entries yes (1) when relative viability is lower than 0.6 and no (0) when it is not.

- Clc1ccc(Nc2nnc(Cc3ccncc3)c3ccccc23)cc1 [Vatalanib] + NC(=O)Nc1cc(-c2cccc(F)c2)sc1C(=O)N[C@H]1CCCNC1 [AZD7762] (partner 0.2 µM): yes (1)
- COc1cc(N2CCC(C(N)=O)CC2)ccc1Nc1nc(N)c(Cl)c(Nc2ccccc2S(=O)(=O)C(C)C)n1 [HG-5-88-01] + CC(=O)Nc1cccc(-n2c(=O)n(C3CC3)c(=O)c3c(Nc4ccc(I)cc4F)n(C)c(=O)c(C)c32)c1 [Trametinib] (partner 0.02 µM): yes (1)
- COc1cc(N2CCC(C(N)=O)CC2)ccc1Nc1nc(N)c(Cl)c(Nc2ccccc2S(=O)(=O)C(C)C)n1 [HG-5-88-01] + Nc1nc2[nH]cc(CCc3ccc(C(=O)N[C@@H](CCC(=O)O)C(=O)O)cc3)c2c(=O)[nH]1 [Pemetrexed] (partner 0.2 µM): no (0)
- Clc1ccc(Nc2nnc(Cc3ccncc3)c3ccccc23)cc1 [Vatalanib] + O=C(c1cc(Cc2n[nH]c(=O)c3ccccc23)ccc1F)N1CCN(C(=O)C2CC2)CC1 [Olaparib] (partner 8 µM): no (0)
- COc1cc(N2CCC(C(N)=O)CC2)ccc1Nc1nc(N)c(Cl)c(Nc2ccccc2S(=O)(=O)C(C)C)n1 [HG-5-88-01] + C[C@]1(O)C[C@@H](c2nc(-c3ccc4ccc(-c5ccccc5)nc4c3)c3c(N)nccn32)C1 [Linsitinib] (partner 1 µM): yes (1)

API: query returns whether the compound falls strictly under 0.6 in relative viability. Query: Clc1ccc(Nc2nnc(Cc3ccncc3)c3ccccc23)cc1 [Vatalanib] + O=C(CCCCCCC(=O)Nc1ccccc1)NO [Vorinostat] (partner 1 µM)
yes (1)

----------
In this section, each of the compounds is paired with its reported relative viability.
Test system: NCI-H1355
Experiment: relative viability (nuclei count vs DMSO), 5 days (fraction); higher = more cells survive
Settings: first compound 4 µM
Please reply with the value in numeric form only.

Before answering, review these 3 worked examples.
* COc1cc(N2CCC(C(N)=O)CC2)ccc1Nc1nc(N)c(Cl)c(Nc2ccccc2S(=O)(=O)C(C)C)n1 [HG-5-88-01] + CS(=O)(=O)CCNCc1ccc(-c2ccc3ncnc(Nc4ccc(OCc5cccc(F)c5)c(Cl)c4)c3c2)o1 [Lapatinib] (partner 2 µM) | 0.623
* C[C@@H]1CN(CC(=O)Nc2ccc3c(c2)Cc2cccc(-c4cc(=O)cc(N5CCOCC5)o4)c2S3)C[C@H](C)O1 + NC(=O)Nc1cc(-c2cccc(F)c2)sc1C(=O)N[C@H]1CCCNC1 [AZD7762] (partner 0.2 µM) | 0.62
* C[C@@H]1CN(CC(=O)Nc2ccc3c(c2)Cc2cccc(-c4cc(=O)cc(N5CCOCC5)o4)c2S3)C[C@H](C)O1 + O=C(c1cc(Cc2n[nH]c(=O)c3ccccc23)ccc1F)N1CCN(C(=O)C2CC2)CC1 [Olaparib] (partner 8 µM) | 0.482

Here's the next entry for you.
Reported relative viability for COc1cc(N2CCC(C(N)=O)CC2)ccc1Nc1nc(N)c(Cl)c(Nc2ccccc2S(=O)(=O)C(C)C)n1 [HG-5-88-01] + COc1cc2c(Oc3ccc(NC(=O)C4(C(=O)Nc5ccc(F)cc5)CC4)cc3F)ccnc2cc1OCCCN1CCOCC1 [Foretinib] (partner 0.25 µM) was 0.696

Data origin: the supplement of paper PMC10307832
